These entries and their values trace back to ChEMBL document CHEMBL3425493.

assay.text: Clearance in mouse at 2 mg/kg, iv
Format: ADME, organism-based
Set-up: dose 2 mg/kg, route intravenous
test.context: in vivo
reported.property: clearance (mL/min/kg)

[a] COCCO[C@H]1CC[C@H](Nc2cc(=O)n(C)c3ccc(-c4cncs4)cc23)CC1
[b] CO[C@H]1CC[C@H](Nc2cc(=O)n(C)c3c(C)cc(-c4cncs4)cc23)CC1
Q. For this pair, a and b , which shows a numerically higher clearance? // output: label of the selected item
A. b

---

assay.text: Cmax in mouse at 10 mg/kg, po
Assay type: ADME, organism-based
Design: dose 10 mg/kg, route oral
test.context: in vivo
reported.property: Cmax (ng/mL)
// units = ng/mL; emit number, no label

Q. Query Cmax for `COCCO[C@H]1CC[C@H](Nc2cc(=O)n(C)c3c(C)cc(-c4cncs4)cc23)CC1`
A. 3810
